- Tested on: MS2 coat protein
- Procedure details: apparent KD of MS2 coat protein; higher = weaker reporter binding
- Details: Eterna round: R107; input ligand: theophylline 20 uM
apparent KD of MS2 coat protein reference
Please reply with the bare figure in nM and do not write the unit itself.

Below, each entry is followed by its recorded apparent KD of MS2 coat protein result.
| Construct sequence | apparent KD of MS2 coat protein [nM] |
| --- | --- |
| CACAUGAGGAUCACCCAUGUCUGAACUGAAGGAGCGCUAAAUAAGGCAGGUAGGUCGCGGAAUCGUGUGUGCAUAUGCACACGCG [9.U] | 35.7 |
| AACAUGAGGAUCACCCAUGUAUUGGGUGAUACCAGCCUGAAUAAGGGCCCUUGGCAGCACCGCGCUAACUUUAUGUCUGCGAACC [Rebiercete] | 432 |
| AAUAACAUGAGGAUCACCCAUGUAAAAGAUACCAGAGUGAUGAUCCUCCCUUGGCAGCUUAACGCUGAUUGAUUACAAUCAGCGA [TheoAS 3 #Tail #MS2BeforeAptamer #BothOrNeither] | 128 |
| UGUAUGUGAUCUGAUACCAGUCCAACUGGUAAAACCUGAGGAUCACCCGGGUAAAAUUGGGACCCUUGGCAGCAGAUCGCAUACU | 285 |
| UGAAAGUAGGGAAGGAGCGCUACAACAUGAGGAUCACCCAUGUUAUGAGGAUCACCCAUGUGGCAGGUAGGUCGCCCAAAACAUG [Same State Arginine B] | 95.1 |
| UUAUAAGUACCGGUCCUCAGAUCCUCAUGACGAGGACCGGUACGGCCGCCACUCGAAACAUGAGGAUCACCCAUGUAAUAAUAUU [Brourdmod07] | 25.3 |
| GGUAUGUAUUCGGAAACGAAUGCAUACCAACGAGGACCGGUACGGCCGCCACUCGCCGUCCUCAAACAUGAGGAUCACCCAUGUA [Ex Tryptophan A 7] | 30.5 |
| GGUGGGACUUGUGAUACCAGCCCAGUUCUAAUCGAACUGCACAUGAGGAUCACCCAUGUCGGCCCUUGGCAGCAUGAGUAUUUAU [Esceesor] | 160 |

Reported apparent KD of MS2 coat protein for AGCACUGUGACGGCCGCCACUACAUAUAGGGUGGUCAGGCCCAUAAUACAUGAGGAUCACCCAUGUAGGACCGGGUCUCAGUGCA [Omei Trp Exc B A v12] was 25.4

====

- System: K4 kissing-loop RNA reporter;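 further: bound reporter read as fluorescence of individual clusters on recovered sequencing chips by microscopy, with normalized cluster intensities fitted with a binding model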
- Procedure details: apparent KD of K4 kissing-loop reporter; higher = weaker reporter binding
- Details: Eterna round: R107; input ligand: arginine 13.2 mM
Would you mind labelling by apparent KD of K4 kissing-loop reporter? At or over 500 nM is YES, under is NO.

Please review the following examples before continuing.
| Construct sequence | Label |
| --- | --- |
| GCGCGUCAUGUCAGCGGUGACACUGUCGAUACCAGCGCCGGAAGGCGCCCUUGGCAGCGACGUGCUGGAGUGAUGUUCCAGCGUC [#2 Exclusion - Theophylline A Attempt #21 (HarryS)] | NO |
| GCUAUAGUGUUAGAUACCAGUAUCCUGCAAAGCCAUCAAAUGCAGUGAUGUUGCAUAAACUACCCUUGGCAGCUAAUUGGGCUCU [theeternabot_exclusion_KL_Theo_B_49] | NO |
| CAUUAAACUCAAACUAUUGGGUUUACGUUCCGAGGACCGGUACGGCCGCCACUCGGUCGAUGCUAUACCAUACGAGUGAUGUUCG [theeternabot_sameState_KL_Trp_A_1] | NO |

Can GCAGUGAUGUUGCACGAGUAGGCUAGAGUACGAGGACCGGUACGGCCGCCACUCGUACGGAAGUCGCUAAUUUAUGGAAUGGUGA [#05 K4 Tryptophan A Same State] be said to have apparent KD of K4 kissing-loop reporter at or above 500 nM? NO

Can UUGAGACGUCAAGGAUAUUCCGCGGAAGGGCGAGCGACCCAAGUGUGAGUGAUGUUCAGCAAGCCGGAAGAAGGUGAAUUUCACC [theeternabot_sameState_KL_FMN_B_26] be said to have apparent KD of K4 kissing-loop reporter at or above 500 nM? YES

====

- Tested on: MS2 coat protein
- Procedure details: apparent KD of MS2 coat protein; higher = weaker reporter binding
- Details: Eterna round: R107; input ligand: arginine 13.2 mM
Would you mind labelling by apparent KD of MS2 coat protein? At or over 30 nM is Condition met, under is Condition not met.

Please review the following examples before continuing.
| Construct sequence | Label |
| --- | --- |
| AAUUACAUGAGGAUCACCCAUGUGGCACAACGAGGACCGGUACGGCCGCCACUCGGUGCUGUACCACAAAACAUGCACGGGAAAG [theeternabot_sameState_MS2_Trp_A_6] | Condition met |
| GUAGGUCUCAUGGGUGGACCUACACUGGAAGGAGCGAGCGAAAGCUCAGGUAGGUCGCCAGAAACAUGAGGAUCACCCAUGUAAU [(A)''-(M)'-(A)'-(Arg1)-(Arg2)-(M1)-(M2)_Design1] | Condition met |
| UUUACAUGAGGAUCACCCAUGUGCCAUGAUACCAGACAUGAAAAUGUCCCUUGGCAGCAUGAAAGAUCCACGUCGGAAACGACGG [Krpole] | Condition met |

Can UACAGUACAACAGAUACCAGACAGUACUCUAGAUUGCAACAUGAGGAUCACCCAUGUAUAGUCCCUUGGCAGCUGUAAUGGGUGA [Theo B SS s1] be said to have apparent KD of MS2 coat protein at or above 30 nM? Condition met

Can CGGUUUGUGAUGGAUACCAGCAGAGAAAACGUUUAUCCUAACAUGAGGAUCACCCAUGUAUGCCCUUGGCAGCUGUUGUGGGCUG [8.U] be said to have apparent KD of MS2 coat protein at or above 30 nM? Condition met

Can UUCAGCUAGUCGGCCGCCACUACAUGAGGAUCACCCAUGUAGGUCCACACUGCUUCGGCAGUGAGUAGGACCGGGACUAGCUGAG be said to have apparent KD of MS2 coat protein at or above 30 nM? Condition not met

====

- Tested on: MS2 coat protein
- Procedure details: apparent KD of MS2 coat protein; designed switch direction (-1 OFF switch, 1 ON switch): 1; higher = weaker reporter binding
- Details: input ligand: none
Test readout: apparent KD of MS2 coat protein (nM)
Please reply with the bare figure in nM and do not write the unit itself.

Below, each entry is followed by its recorded apparent KD of MS2 coat protein result.
| Construct sequence | Unit annotation | apparent KD of MS2 coat protein |
| --- | --- | --- |
| GGUCGGUCCAACAUGAGGAUCACCCAUGUACCGGAAACGGCAUAGGAUAUCUGUCCGAAAAGGUCAGAGAAGGGUGAACCGACC [Fiskers NG3ss - 72] (Eterna round: R96, puzzle: Same State NG 3) | nM | 229 |
| UUGAAGAAUUAAGGAUAUUGAAUACAUAUGUUUAACAUGAGGAUCACCCAUGUGGGUUGCGGUGUCGAGAAGGUAAAAUAAUAG [Mat - same State NG 2 - JL mod - D95] (Eterna round: R96, puzzle: Same State NG 2) | nM | 329 |
| AGAUCAUGACGAGGAUAUGGUACAUGAGGAUCACCCAUGUAUGUACCACGACGGAAACGUCGAAUCCAGAAGGCGUCGUGAUCA [Mat - Same State NG 2 - JL mod - D23] (Eterna round: R96, puzzle: Same State NG 2) | nM | 127 |

Please turn your attention to the following entry.
Reported apparent KD of MS2 coat protein for CGUUGGACAUCCAGCAAGACAUGAGGAUCACCCAUGUAGGCGCAGGAUAUGCGGGUUCGGUGCUCGCAGAAGGGUGAAGAAAAC [Araerar] (Eterna round: R96, puzzle: Same State NG 3) was 30.4

====

- Tested on: MS2 coat protein
- Procedure details: apparent KD of MS2 coat protein; designed switch direction (-1 OFF switch, 1 ON switch): 1; higher = weaker reporter binding
- Details: Eterna round: R95; input ligand: microRNA oligo, concentration not stated
apparent KD of MS2 coat protein reference

Below, each entry is followed by its recorded apparent KD of MS2 coat protein result.
| Construct sequence | Test readout | Value |
| --- | --- | --- |
| GGAGCCGGCACCGAGGAUAUUCAUAUUAAAACAUGAGGAUCACCCAUGUAGGCCAGAAGGCCUUGGGAGAAGGCGGAUCGGCUCA [Xeonanis - 6] (puzzle: Same State 2) | apparent KD of MS2 coat protein | 376 nM |
| CCAUGGUAACAUGAGGAUCACCCAUGUACAAGCUUUUUGCUCGUUUUAUUUAUUAUUAUUAUUAUUAUUAUUAUUAA [Nishu_Seq1] (puzzle: Sensor for hsa-mir-208a version 2) | apparent KD of MS2 coat protein | 105 nM |

Reported apparent KD of MS2 coat protein for CAGUACUGUCGAGAGGAUAUGCGGUGAUGGACAUGAGGAUCACCCAUGUUAGCGACAGCAUCACGGCAGAAGGCUCUACUGCUGC [Soteed Omei mod 33] (puzzle: Same State 2) was 39.4 nM
